tgt: T1, recombinant mouse integrin-αvβ1 (mouse, UniProt P43406 31-988; P09055 21-728, limits assumed)
T1 construct: also called Recombinant Mouse Integrins
experimental protocol: IgG titration on recombinant mouse integrin αvβ1, one site-total fit; assay format not stated

binder: 10404 hG4/hk (antibody, V domains shown, the IgG4 constant region used is not specified; not shown: human IgG4 constant region ('hG4')) VH: EVQLVESGGGLVQPGGSLRLSCAASGFNLYSSSIHWVRQAPGKGLEWVAYIYPSYGYTSTYADSVKGRFTISADTSKNTAYLQMNSLRAEDTAVYYCARPAPYYSWYPAMDYWGQGTLVTVSS VL: DIQMTQSPSSLSASVGDRVTITCRASQSVSSAVAWYQQKPGKAPKLLIYSASSLYSGVPSRFSGSRSGTDFTLTISSLQPEDFATYYCQQASGSPFTFGQGTKVEIKR
Bmax: 0.782
--
binder: 10404 hG1 LALA PG/hk (antibody, V domains shown, not shown: human IgG1 constant region with 'LALA PG' changes) VH: EVQLVESGGGLVQPGGSLRLSCAASGFNLYSSSIHWVRQAPGKGLEWVAYIYPSYGYTSTYADSVKGRFTISADTSKNTAYLQMNSLRAEDTAVYYCARPAPYYSWYPAMDYWGQGTLVTVSS VL: DIQMTQSPSSLSASVGDRVTITCRASQSVSSAVAWYQQKPGKAPKLLIYSASSLYSGVPSRFSGSRSGTDFTLTISSLQPEDFATYYCQQASGSPFTFGQGTKVEIKR
Bmax: 1.09
--
binder: IgG clone 10392, hG1/hk (pSCSTa-hG1 (10392) heavy chain, pSCSTa-hK (10392) light chain) (antibody, V domains shown, Full-length human IgG1/kappa made in Expi293 cells) VH: EVQLVESGGGLVQPGGSLRLSCAASGFNIYYSSIHWVRQAPGKGLEWVASISSSSGSTSTYADSVKGRFTISADTSKNTAYLQMNSLRAEDTAVYYCARSYYGGGYPYALDYWGQGTLVTVSS VL: DIQMTQSPSSLSASVGDRVTITCRASQSVSSAVAWYQQKPGKAPKLLIYSASSLYSGVPSRFSGSRSGTDFTLTISSLQPEDFATYYCQQYFGGLITFGQGTKVEIKR
Bmax: 0.412
